Test system: HOP-18
Assay: NCI tumour cell line growth inhibition, 48 h
The source made the active and inactive calls. Rule as the data show it: active = GI50 up to about 1.1 µM and inactive = higher.
// classify into Y = active, N = inactive

| molecule | category_label |
| --- | --- |
| C=CC/C=C/C/C=C/CCCCCCCc1cccc(O)c1C(=O)O | N |
| CC(=O)c1cccc(NC(=O)C(=O)NNc2nnc(S)n2N)c1 | N |

Data request: Lab log entry: COC(=O)C12C3C4C1C1C2C3C41C(=O)OC(C)(C)C (stereo unspecified) — outcome as called in the assay?
Data returned: N

Data request: Lab log entry: COC(=O)c1cccn1C(=O)n1cccc1 — outcome as called in the assay?
Data returned: N

Data request: Lab log entry: COc1ccc(C(=O)C(c2ccc(OC)cc2)C2OC(=O)C(Cl)=C2Cl)cc1 (stereo unspecified) — outcome as called in the assay?
Data returned: N

Data request: Lab log entry: CC1CC=CC(O)C1 (stereo unspecified) — outcome as called in the assay?
Data returned: N
